Target: intracellular PLA2 (cytosolic PLA2, cPLA2) (Homo sapiens)
Sequence (P47712 1-749): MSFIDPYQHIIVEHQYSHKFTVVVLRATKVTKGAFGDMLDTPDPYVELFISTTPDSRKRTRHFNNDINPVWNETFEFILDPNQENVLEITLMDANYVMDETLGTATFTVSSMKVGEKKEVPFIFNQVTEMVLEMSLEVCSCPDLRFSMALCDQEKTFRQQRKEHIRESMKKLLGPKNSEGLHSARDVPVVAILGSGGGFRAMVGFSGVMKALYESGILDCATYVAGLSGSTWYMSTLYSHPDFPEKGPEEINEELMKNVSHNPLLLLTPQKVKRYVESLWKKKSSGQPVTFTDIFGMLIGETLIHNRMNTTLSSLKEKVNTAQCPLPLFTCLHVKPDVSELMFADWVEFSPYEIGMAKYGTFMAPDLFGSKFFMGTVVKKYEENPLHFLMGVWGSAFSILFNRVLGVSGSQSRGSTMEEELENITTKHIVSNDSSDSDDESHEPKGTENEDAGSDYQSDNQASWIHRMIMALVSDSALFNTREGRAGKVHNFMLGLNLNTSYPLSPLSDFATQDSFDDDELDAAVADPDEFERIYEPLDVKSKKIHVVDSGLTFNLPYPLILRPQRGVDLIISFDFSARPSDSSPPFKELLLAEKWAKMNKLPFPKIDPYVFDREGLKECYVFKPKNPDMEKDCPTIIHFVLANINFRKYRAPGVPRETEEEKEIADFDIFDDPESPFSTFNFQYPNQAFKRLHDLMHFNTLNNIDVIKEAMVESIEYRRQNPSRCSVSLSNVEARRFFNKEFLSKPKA
Experiment: Intracellular PLA2 (cPLA2) inhibitory activity (14C-arachidonyl phosphatidylcholine substrate)
Assay type: biochemical
Settings: 2 μM radiolabelled phosphatidylcholine, 1 μM dioleoylglycerol, 1 mM CaCl2, pH 7.4; read-out: c-PLA2 Inhibition IC50
Quick reference: pIC50 of the listed items.
In plain terms, pIC50 is the concentration in mol/L turned into minus its base-10 logarithm.

> print(dat)
                            chemical.string  recorded.metric  result.number
1  COc1c(C)c(OC(=O)c2c(C)c(C)c(OCCCCCCOc3ccc(F)cc3)c(C)c2OC)c(C)c(C)c1C(=O)O            pIC50           5.13
2  COc1c(C)c(OC(=O)c2c(C)c(C)c(OCCCOc3ccc(Cl)cc3)c(C)c2OC)c(C)c(C)c1C(=O)O            pIC50           5.40

Task item: What pIC50 value was documented for this compound, COc1c(C)c(OC(=O)c2c(C)c(C)c(OCCCN(S(C)(=O)=O)S(=O)(=O)c3ccc(F)cc3)c(C)c2OC)c(C)c(C)c1C(=O)O ?
Reply: 4.80

Task item: Now consider COc1c(C)c(OC(=O)c2c(C)c(C)c(OCCCCCCSc3ccc(F)cc3)c(C)c2OC)c(C)c(C)c1C(=O)O .
Reply: 5.40

Task item: What would you report for COC(=O)c1ccc(OCCCOc2c(C)c(C)c(C(=O)Oc3c(C)c(C)c(C(=O)O)c(OC)c3C)c(OC)c2C)cc1 ?
Reply: 4.85

Task item: Next compound up: COc1ccc(OCCCOc2c(C)c(C)c(C(=O)Oc3c(C)c(C)c(C(=O)O)c(OC)c3C)c(OC)c2C)cc1OC
Reply: 4.46

Task item: Follow-up item: COc1c(C(C)(C)C)cc(SCCCOc2c(C)c(C)c(C(=O)Oc3c(C)c(C)c(C(=O)O)c(OC)c3C)c(OC)c2C)cc1C(C)(C)C
Reply: 6.27

Task item: Next record, please: COc1c(C)c(OC(=O)c2c(C)c(C)c(OCc3ccc(F)cc3)c(C)c2OC)c(C)c(C)c1C(=O)O
Reply: 4.51

Task item: And COc1c(C)c(OC(=O)c2c(C)c(C)c(OCCCN(S(=O)(=O)c3ccc(F)cc3)S(=O)(=O)c3ccc(F)cc3)c(C)c2OC)c(C)c(C)c1C(=O)O ?
Reply: 5.20
